Provenance of the data: patent US20230242552A1

System: NCI-H358 (KRAS G12C mutation)
Assay: Proliferation inhibition measured by CTG, NCI-H358
Format: cell-based, human
Settings: CellTiter Glo, 120 hours incubation
pIC50: −log10 of the molar value.
result-type: pIC50

Recorded pIC50, per entry:
compound="CC1Cc2cnccc2CN1c1nc(OC[C@@H]2CCCN2C)nc2c1CCN(c1cccc3cccc(Cl)c13)C2 (stereo partly shown) [Compound 3]" result_type=pIC50 measurement="≥ 6.00"
compound="CC1Cc2cncc(F)c2CN1c1nc(OC[C@@H]2CCCN2C)nc2c1CO[C@H](c1cccc3cccc(Cl)c13)C2 (single isomer, unassigned) [Compound 11-1]" result_type=pIC50 measurement="5.00 to 6.00"
compound="CC1Cc2cncc(F)c2CN1c1nc(OC[C@@H]2CCCN2C)nc2c1CCN(c1cc(O)cc3cccc(Cl)c13)C2 (stereo partly shown) [Compound 5-2]" result_type=pIC50 measurement="≥ 6.00"
compound="CC1Cc2cncc(F)c2CN1c1nc(OC[C@@H]2CCCCN2C)nc2c1CCN(c1cccc3cccc(Cl)c13)C2 (stereo partly shown) [Compound 9-2]" result_type=pIC50 measurement="≥ 6.00"

For CC1Cc2cnccc2CN1c1nc(OC[C@@H]2CCCN2C)nc2c1CCN(c1cccc3cccc(Cl)c13)C2 (stereo partly shown) [Compound 3-2] , what is its reported pIC50? ≥ 6.00

For CC1Cc2cncc(F)c2CN1c1nc(OC[C@@H]2CCCN2C)nc2c1CO[C@H](c1cccc3cccc(Cl)c13)C2 (single isomer, unassigned) [Compound 11-2] , what is its reported pIC50? 5.00 to 6.00

For CC1Cc2cncc(F)c2CN1c1nc(OC[C@@H]2CCCN2C)nc2c1CCN(c1cccc3cccc(Cl)c13)C2 (single isomer, unassigned) [Compound 4-2] , what is its reported pIC50? ≥ 6.00

* * *

System: SW480 (colon cancer cell lines with KRAS G12V mutation)
Assay: Proliferation inhibition measured by CTG, SW480
Assay type: cell-based
Details: Homo sapiens, SW480, 120 h, CellTiter Glo, 120 hours incubation
Below is a list of entries, each paired with its recorded IC50 value.

Recorded IC50, per entry:
compound=C[C@@H]1Cc2cncc(F)c2CN1c1nc(OC[C@@H]2CCCN2C)nc2cc(-c3cccc4cccnc34)ccc12 measurement="≤ 1000 nM"
compound="CC1Cc2cncc(F)c2CN1c1nc(OC[C@@H]2CCCN2C)nc2c1CCN(c1cc(O)cc3cccc(Cl)c13)C2 (stereo partly drawn)" measurement="≤ 1000 nM"
compound=C[C@H]1Cc2cncc(F)c2CN1c1nc(OC[C@@H]2CCCN2C)nc2cc(-c3cccc4cccc(Cl)c34)ccc12 measurement="≤ 1000 nM"

For C[C@H]1Cc2cncc(F)c2CN1c1nc(OC[C@@H]2CCCCN2C)nc2c1CCN(c1cccc3cccc(F)c13)C2 , what is its reported IC50? ≤ 1000 nM

For C[C@H]1Cc2cncc(F)c2CN1c1nc(OC[C@@H]2CCCN2C)nc2c1CCN(c1cncc3ccccc13)C2 , what is its reported IC50? 1000 to 10000 nM

For C[C@@H]1Cc2cncc(F)c2CN1c1nc(OC[C@H]2CCCN2C)nc2c1CCN(c1cccc3cccc(F)c13)C2 , what is its reported IC50? ≤ 1000 nM

* * *

Test system: SW480 (colon cancer cell lines with KRAS G12V mutation)
Experiment: Proliferation inhibition measured by CTG, SW480
Type: cell-based
Conditions: Homo sapiens, SW480, 120 h, CellTiter Glo, 120 hours incubation
Procedure: NCI-H358 is a human non-small cell lung cancer cell line with KRAS G12C mutation; AGS is a gastric cancer cell line with KRAS G12D mutation; SW480 is a colon cancer cell lines with KRAS G12V mutation; A375 is a wild type malignant melanoma cell line. The proliferation inhibitory effect of the compounds on various mutations was evaluated by determining the proliferation inhibitory activity of the compounds on these cell lines. The assay was conducted on either 384-well plates or 96-well plates. […]
pIC50: −log10 of the molar value.
result-type: pIC50

Recorded pIC50, per entry:
compound="C[C@@H](CN(C)C)Oc1nc2c(c(N3Cc4c(F)cncc4C[C@@H]3C)n1)CCN(c1cccc3cccc(F)c13)C2 [Compound 26]" measurement="5.00 to 6.00"
compound="C[C@@H]1Cc2cncc(F)c2CN1c1nc(O[C@@H](C)CN(C)C)nc2c1CCN(c1cccc3cccc(F)c13)C2 [Compound 29]" measurement="≥ 6.00"
compound="C[C@H]1Cc2cncc(F)c2CN1c1nc(OC[C@H]2COCCN2C)nc2c1CCN(c1cccc3cccc(F)c13)C2 [Compound 24]" measurement="5.00 to 6.00"

Give SW480 (colon cancer cell lines with KRAS G12V mutation) pIC50 for CC1Cc2cnccc2CN1c1nc(OC[C@@H]2CCCN2C)nc2c1CCN(c1cccc3cccc(Cl)c13)C2 (stereo partly shown) [Compound 3-1] 5.00 to 6.00

* * *

Test system: AGS (gastric cancer cell line with KRAS G12D mutation)
Experiment: Proliferation inhibition measured by CTG, AGS
Type: cell-based
Conditions: CellTiter Glo, 120 hours incubation
Below is a list of entries, each paired with its recorded IC50 value.

Recorded IC50, per entry:
compound="CC1Cc2cnccc2CN1c1nc(OC[C@@H]2CCCN2C)nc2c1CCN(c1cccc3cccc(Cl)c13)C2 (stereo partly shown) [Compound 3-2]" study_target="AGS (gastric cancer cell line with KRAS G12D mutation)" measurement="≤ 1 µM"
compound="CC1Cc2cncc(F)c2CN1c1nc(OC[C@@H]2CCCN2C)nc2c1CO[C@H](c1cccc3cccc(Cl)c13)C2 (single isomer, unassigned) [Compound 11-1]" study_target="AGS (gastric cancer cell line with KRAS G12D mutation)" measurement="1 to 10 µM"
compound="CC1Cc2cnccc2CN1c1nc(OC[C@@H]2CCCN2C)nc2c1CCN(c1cccc3cccc(Cl)c13)C2 (stereo partly shown) [Compound 3]" study_target="AGS (gastric cancer cell line with KRAS G12D mutation)" measurement="≤ 1 µM"
compound="CC1Cc2cncc(F)c2CN1c1nc(OC[C@@H]2CCCN2C)nc2c1CCN(c1cccc3cccc(Cl)c13)C2 (single isomer, unassigned) [Compound 4-2]" study_target="AGS (gastric cancer cell line with KRAS G12D mutation)" measurement="≤ 1 µM"

For CC1Cc2cncc(F)c2CN1c1nc(OC[C@@H]2CCCCN2C)nc2c1CCN(c1cccc3cccc(Cl)c13)C2 (stereo partly shown) , what is its reported IC50? ≤ 1 µM

For CC1Cc2cncc(F)c2CN1c1nc(OC[C@@H]2CCCN2C)nc2c1CO[C@H](c1cccc3cccc(Cl)c13)C2 (single isomer, unassigned) [Compound 11-2] , what is its reported IC50? ≤ 1 µM

For CC1Cc2cncc(F)c2CN1c1nc(OC[C@@H]2CCCN2C)nc2c1CCN(c1cccc3cccc(Cl)c13)C2 (single isomer, unassigned) [Compound 4-1] , what is its reported IC50? ≤ 1 µM

* * *

Tested on: SW480 (colon cancer cell lines with KRAS G12V mutation)
Test: Proliferation inhibition measured by CTG, SW480
Type: cell-based
Settings: Homo sapiens, SW480, 120 h, CellTiter Glo, 120 hours incubation
result-type: IC50

For C[C@@H]1Cc2cncc(F)c2CN1c1nc(OC[C@@H]2CCCCN2C)nc2c1CCN(c1cccc3cccc(F)c13)C2 , what is its reported IC50? ≤ 1000 nM

For C[C@H]1Cc2cncc(F)c2CN1c1nc(OC[C@@H]2CN(C)CCN2C)nc2c1CCN(c1cccc3cccc(F)c13)C2 , what is its reported IC50? 1000 to 10000 nM

For C[C@H]1Cc2cncc(F)c2CN1c1nc(OC[C@@H]2CCCN2C)nc2cc(-c3cccc4cccc(F)c34)ccc12 , what is its reported IC50? 1000 to 10000 nM

For C[C@H]1Cc2cncc(F)c2CN1c1nc(OC[C@@H]2CCCN2C)nc2c1CCN(c1cccc3ccncc13)C2 , what is its reported IC50? 1000 to 10000 nM

* * *

System: AGS (gastric cancer cell line with KRAS G12D mutation)
Experiment: Proliferation inhibition measured by CTG, AGS
Format: cell-based
Conditions: 120 h, CellTiter Glo, 120 hours incubation
Protocol: NCI-H358 is a human non-small cell lung cancer cell line with KRAS G12C mutation; AGS is a gastric cancer cell line with KRAS G12D mutation; SW480 is a colon cancer cell lines with KRAS G12V mutation; A375 is a wild type malignant melanoma cell line. The proliferation inhibitory effect of the compounds on various mutations was evaluated by determining the proliferation inhibitory activity of the compounds on these cell lines. The assay was conducted on either 384-well plates or 96-well plates. […]
Below is a list of entries, each paired with its recorded IC50 value.

For C[C@@H]1Cc2cncc(F)c2CN1c1nc(O[C@@H](C)CN(C)C)nc2c1CCN(c1cccc3cccc(F)c13)C2 , what is its reported IC50? ≤ 1000 nM

For C[C@H]1Cc2cncc(F)c2CN1c1nc(OC[C@@H]2CCCN2C)nc2c1CCN(c1ccnc3ccccc13)C2 , what is its reported IC50? 1000 to 10000 nM
